Measured Minimum inhibition concentration (MIC) by item
Tested on: S. epidermidis C2235
Assay: Anti-microbial activity test in vitro (agar dilution MIC)
Format: cell-based
Details: S. epidermidis C2235; Agar Dilution method, Mueller Hinton Agar, 18 hours at 37° C.
Enter your answer as a number in µg/mL; do not include the unit.

- molecule: "CC(=O)NC[C@H]1CN(c2ccc(N3CCC(=CC=NO)CC3)c(F)c2)C(=O)O1 [Compound 18]"
  measure_unit: "µg/mL"
  Minimum inhibition concentration (MIC): 4
- molecule: "CCOC(=O)C(Cl)=C1CCN(c2ccc(N3C[C@H](CNC(C)=O)OC3=O)cc2F)CC1 [Compound 15]"
  measure_unit: "µg/mL"
  Minimum inhibition concentration (MIC): 4
- molecule: "CC(=O)NC[C@H]1CN(c2ccc(N3CCC(=CC(C)OC(=O)C(Cl)Cl)CC3)c(F)c2)C(=O)O1 (stereo partly shown) [Compound 25]"
  measure_unit: "µg/mL"
  Minimum inhibition concentration (MIC): 8

Please examine the following record next.
Form: molecule = CCOC(=O)C(C#N)=C1CCN(c2ccc(N3C[C@H](CNC(C)=O)OC3=O)cc2F)CC1 [Compound 7] ; Minimum inhibition concentration (MIC) = 2

----------
System: VRE C6488
Test: Anti-microbial activity test in vitro (agar dilution MIC)
Assay type: cell-based, Enterococcus faecium
Settings: VRE C6488; Agar Dilution method, Mueller Hinton Agar, 18 hours at 37° C.
value_type: Minimum inhibition concentration (MIC) (µg/mL)
Enter your answer as a number in µg/mL; do not include the unit.

- compound: "CC(=O)NC[C@H]1CN(c2ccc(N3CCC(=CC(C)=NO)CC3)c(F)c2)C(=O)O1 [Compound 20]"
  measure_unit: "µg/mL"
  Minimum inhibition concentration (MIC): 4
- compound: "CC(=O)NC[C@H]1CN(c2ccc(N3CCC(=CC#N)CC3)c(F)c2)C(=O)O1 [Compound 8]"
  measure_unit: "µg/mL"
  Minimum inhibition concentration (MIC): 4
- compound: "CCOC(=O)C(Cl)=C1CCN(c2ccc(N3C[C@H](CNC(C)=O)OC3=O)cc2F)CC1 [Compound 15]"
  measure_unit: "µg/mL"
  Minimum inhibition concentration (MIC): 4
- compound: "CC(=O)NC[C@H]1CN(c2ccc(N3CCC(=CC(C)OC(C)=O)CC3)c(F)c2)C(=O)O1 (some centres unmarked) [Compound 23]"
  measure_unit: "µg/mL"
  Minimum inhibition concentration (MIC): 4
- compound: "CCOC(=O)C(C)=C1CCN(c2ccc(N3C[C@H](CNC(C)=O)OC3=O)cc2F)CC1 [Compound 13]"
  measure_unit: "µg/mL"
  Minimum inhibition concentration (MIC): 8
- compound: "CC(=S)NC[C@H]1CN(c2ccc(N3CCC(=CC#N)CC3)c(F)c2)C(=O)O1 [Compound 26]"
  measure_unit: "µg/mL"
  Minimum inhibition concentration (MIC): 0.5
- compound: "CC(=O)NC[C@H]1CN(c2ccc(N3CCC(=C(C)C#N)CC3)c(F)c2)C(=O)O1 [Compound 16]"
  measure_unit: "µg/mL"
  Minimum inhibition concentration (MIC): 1

# lookup: CC(=O)NC[C@H]1CN(c2ccc(N3CCC(=CC(C)O)CC3)c(F)c2)C(=O)O1 (some centres unmarked) [Compound 22] on VRE C6488, Minimum inhibition concentration (MIC) = 4

----------
Tested on: E. faecium C6301
Test: Anti-microbial activity test in vitro (agar dilution MIC)
Assay type: cell-based
Settings: E. faecium C6301; Agar Dilution method, Mueller Hinton Agar, 18 hours at 37° C.
value_type: Minimum inhibition concentration (MIC) (µg/mL)
Enter your answer as a number in µg/mL; do not include the unit.

Form: molecule = CC(=O)NC[C@H]1CN(c2ccc(N3CCC(=CC(C)O)CC3)c(F)c2)C(=O)O1 (some centres unmarked) ; Minimum inhibition concentration (MIC) = 4

Form: molecule = "CCOC(=O)C(C)=C1CCN(c2ccc(N3C[C@H](CNC(C)=O)OC3=O)cc2F)CC1" ; Minimum inhibition concentration (MIC) = 8

Form: molecule = "CC(=O)NC[C@H]1CN(c2ccc(N3CCC(=CC(=O)O)CC3)c(F)c2)C(=O)O1" ; Minimum inhibition concentration (MIC) = 4
